- Tested on: SN12C renal
- Assay text: NCI-60 one-dose screen, 48 h (100 = growth as untreated, 0 = no growth, -100 = all killed)
- Test settings: 10 µM unless noted
Compounds without any hit were thinned out: in the full panel of roughly 83,000, 20% have a hit. The source made the active and inactive calls. Rule for the calls: active = growth percent below 10; inactive = the rest.
Reported growth by item:

Some solved entries appear below for comparison.
Fill: growth (SN12C renal) for this compound `CC(C)(C)C(=O)Nc1nc2c(s1)CCc1ccn(S(=O)(=O)c3ccccc3)c1-2`
112% (inactive)

Fill: growth (SN12C renal) for this compound `c1coc(CSc2ncnc3nc[nH]c23)c1`
102% (inactive)

Consider the record given below.
Fill: growth (SN12C renal) for this compound `O=S(=O)(Nc1cccc2cc(OS(=O)(=O)c3ccccc3)ccc12)c1ccccc1`
70.1% (inactive)
